Readings of CTG-3D luminescence at 96 h for the listed compounds
system: HCI-017.E2 (organoid from an ER-positive breast cancer xenograft); assay: CTG-3D luminescence at 96 h relative to day-0 seeding control (ratio to day 0); higher = more growth / less cytotoxicity; PDxO 3D drug screen (set 2), 96 h, CTG-3D normalised to day-0 seeding control.; conditions: 0.1 µM
Experimental Endpoint: CTG-3D luminescence at 96 h

1) CC(=O)O[C@@]12CO[C@@H]1C[C@H](O)[C@@]1(C)C(=O)[C@H](O)C3=C(C)[C@@H](OC(=O)[C@H](O)[C@@H](NC(=O)OC(C)(C)C)c4ccccc4)C[C@@](O)([C@@H](OC(=O)c4ccccc4)[C@H]21)C3(C)C | 1.36
2) CO[C@H]1C[C@@H]2CC[C@@H](C)[C@@](O)(O2)C(=O)C(=O)N2CCCC[C@H]2C(=O)O[C@H]([C@H](C)C[C@@H]2CC[C@@H](O)[C@H](OC)C2)CC(=O)[C@H](C)/C=C(\C)[C@@H](O)[C@@H](OC)C(=O)[C@H](C)C[C@H](C)/C=C/C=C/C=C/1C | 1.58
3) Nc1cc(C(F)(F)F)c(-c2cc(N3CCOCC3)nc(N3CCOCC3)n2)cn1 | 2.15
4) CS(=O)(=O)CCNCc1ccc(-c2ccc3ncnc(Nc4ccc(OCc5cccc(F)c5)c(Cl)c4)c3c2)o1 | 2.37
